Data provenance: patent US20220402985A1

Recorded Cardiomyocyte (CM) (ErbB4) Avg EC50 values for a group of binders are listed next.
- assay target: ErbB4 on neonatal rat cardiomyocytes (rat) (UniProt Q62956)
- Sequence (Q62956 26-1308): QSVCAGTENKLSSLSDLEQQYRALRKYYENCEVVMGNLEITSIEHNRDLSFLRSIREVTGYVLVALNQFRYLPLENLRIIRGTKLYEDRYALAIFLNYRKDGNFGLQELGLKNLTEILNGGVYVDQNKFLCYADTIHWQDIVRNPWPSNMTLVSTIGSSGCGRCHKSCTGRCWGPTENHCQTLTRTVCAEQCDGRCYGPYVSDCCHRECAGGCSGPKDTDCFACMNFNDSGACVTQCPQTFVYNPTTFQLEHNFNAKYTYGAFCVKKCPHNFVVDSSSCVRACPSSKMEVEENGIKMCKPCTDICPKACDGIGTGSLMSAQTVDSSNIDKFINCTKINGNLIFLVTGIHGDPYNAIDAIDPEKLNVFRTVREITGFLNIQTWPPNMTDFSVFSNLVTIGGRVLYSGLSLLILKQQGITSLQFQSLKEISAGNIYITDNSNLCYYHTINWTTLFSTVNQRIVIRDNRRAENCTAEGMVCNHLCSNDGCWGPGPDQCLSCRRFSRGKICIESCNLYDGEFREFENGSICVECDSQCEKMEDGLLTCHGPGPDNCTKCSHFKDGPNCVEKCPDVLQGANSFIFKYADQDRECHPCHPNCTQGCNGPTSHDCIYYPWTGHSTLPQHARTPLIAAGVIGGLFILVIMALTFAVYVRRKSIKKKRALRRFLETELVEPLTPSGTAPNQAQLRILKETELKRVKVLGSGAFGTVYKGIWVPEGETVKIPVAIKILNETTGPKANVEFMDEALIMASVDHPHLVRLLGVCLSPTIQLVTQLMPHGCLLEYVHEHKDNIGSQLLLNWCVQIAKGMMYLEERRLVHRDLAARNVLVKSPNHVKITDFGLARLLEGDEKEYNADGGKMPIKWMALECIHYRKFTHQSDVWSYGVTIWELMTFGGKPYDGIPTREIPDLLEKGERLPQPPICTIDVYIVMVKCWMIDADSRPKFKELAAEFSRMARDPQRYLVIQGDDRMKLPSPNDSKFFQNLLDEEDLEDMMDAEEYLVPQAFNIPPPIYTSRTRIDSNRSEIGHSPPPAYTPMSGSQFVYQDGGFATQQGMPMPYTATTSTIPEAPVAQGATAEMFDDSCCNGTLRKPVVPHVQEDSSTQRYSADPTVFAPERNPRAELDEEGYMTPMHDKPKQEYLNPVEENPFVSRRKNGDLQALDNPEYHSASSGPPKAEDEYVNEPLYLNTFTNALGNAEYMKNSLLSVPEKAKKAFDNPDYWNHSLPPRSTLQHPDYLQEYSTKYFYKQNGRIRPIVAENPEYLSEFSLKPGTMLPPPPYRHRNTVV
- assay protocol: cell-based or functional assay

# binder, Cardiomyocyte (CM) (ErbB4) Avg EC50 / nM
data = [
    ("huNRG1(S177-Q237)(1B4)::GG::huFcSEFL2 (Pb) (Fc fusion) SHLVKCGERDKTFCVNGGECFMIEDSSNPSRYLCKCPNEFTGDRCQKDFMASFYKAEELYQGGDKTHTCPPCPAPELLGGPSVFLFPPKPKDTLMISRTPEVTCVVVDVSHEDPEVKFNWYVDGVEVHNAKTKPCEEQYGSTYRCVSVLTVLHQDWLNGKEYKCKVSNKALPAPIEKTISKAKGQPREPQVYTLPPSREEMTKNQVSLTCLVKGFYPSDIAVEWESNGQPENNYKTTPPVLDSDGSFFLYSKLTVDKSRWQQGNVFSCSVMHEALHNHYTQKSLSLSPGK", 0.996),
    ("huNRG1(S177-F229)(NRGE1C) (E47A_D48P_F49H_M50I) 6xHis (ligand) SHLVKCGEKHKSFCVNGGECFMIEGPSNPSRYLCKCPNEFTGDRCQAPHIASFGGGGEGGGGAGGGGHHHHHH", 1.1),
    ("huNRG1(S177-F229) 6xHis (ligand) SHLVKCAEKEKTFCVNGGECFMVKDLSNPSRYLCKCPNEFTGDRCQNYVMASFGGGGEGGGGAGGGGHHHHHH", 0.587),
    ("huNRG1(S177-F229)(NRGE1D) (E47K_D48L_F49D_M50I) 6xHis (ligand) SHLVKCGESHKSFCVNGGECYMVEGSSIPSRYLCKCPNEFTGDRCQKLDIASFGGGGEGGGGAGGGGHHHHHH", 0.311),
    ("huNRG1(S177-Q237)(3E9)::GG::huFcSEFL2 (Pb) (Fc fusion) SHLVKCAENHKTFCVNGGECFVIEGSSNPSRYLCKCPNEFTGDRCQDVFLASFYKAEELYQGGDKTHTCPPCPAPELLGGPSVFLFPPKPKDTLMISRTPEVTCVVVDVSHEDPEVKFNWYVDGVEVHNAKTKPCEEQYGSTYRCVSVLTVLHQDWLNGKEYKCKVSNKALPAPIEKTISKAKGQPREPQVYTLPPSREEMTKNQVSLTCLVKGFYPSDIAVEWESNGQPENNYKTTPPVLDSDGSFFLYSKLTVDKSRWQQGNVFSCSVMHEALHNHYTQKSLSLSPGK", 2.68),
    ("huNRG1(S177-Q237)(NRGE1G)::GG::huFcSEFL2 (Pb) (Fc fusion) SHLVKCGEKHKSFCVNGGECYMVEGSSIPSRYLCKCPNEFTGDRCQNDFMASFYKAEELYQGGDKTHTCPPCPAPELLGGPSVFLFPPKPKDTLMISRTPEVTCVVVDVSHEDPEVKFNWYVDGVEVHNAKTKPCEEQYGSTYRCVSVLTVLHQDWLNGKEYKCKVSNKALPAPIEKTISKAKGQPREPQVYTLPPSREEMTKNQVSLTCLVKGFYPSDIAVEWESNGQPENNYKTTPPVLDSDGSFFLYSKLTVDKSRWQQGNVFSCSVMHEALHNHYTQKSLSLSPGK", 0.218),
    ("huNRG1(S177-F229)(NRGE1D) (E47S_D48S_F49E_M50L) 6xHis (ligand) SHLVKCGESHKSFCVNGGECYMVEGSSIPSRYLCKCPNEFTGDRCQSSELASFGGGGEGGGGAGGGGHHHHHH", 0.557),
]
